The measurements presented in this section are drawn from the supplement of paper PMC7600603.

System: DLD1 NRF2-WT
conditionSet: 72 h; CellTiter-Glo viability
Threshold-based label: EC50 viability under 1 µM gives True, EC50 viability not under 1 µM gives False.

> print(dat)
                                    compound  testedtarget  class
 1  Cc1nc(=O)c2cc(CN(C)c3ccc(C(=O)N[C@@H](CCC(=O)O)C(=O)O)s3)ccc2[nH]1 [Raltitrexed]  DLD1 NRF2-WT   True
 2              N.N.[Cl][Pt][Cl] [Cisplatin]  DLD1 NRF2-WT  False
 3  Cc1cccc(CC(=O)N2CCc3c2ccc(-c2cn(C)c4ncnc(N)c24)c3F)n1  DLD1 NRF2-WT   True
 4  C=CC(=O)Nc1cccc(Nc2nc(Nc3ccc(N4CCN(C(C)=O)CC4)cc3OC)ncc2C(F)(F)F)c1 [Rociletinib]  DLD1 NRF2-WT  False
 5  CCCCCCCCCCCCCCCCCCOP(=O)([O-])OC1CC[N+](C)(C)CC1 [Perifosine]  DLD1 NRF2-WT  False
 6  Cc1ccc(C(=O)Nc2cccc(C(F)(F)F)c2)cc1Nc1nc(-c2cccnc2)nc2c1cnn2C [NVP-BHG712]  DLD1 NRF2-WT  False
 7  O=c1[nH]c(C2CCCN2)nc2c1oc1ccc(Cl)cc12 (stereo not drawn)  DLD1 NRF2-WT  False
 8  COc1cc2ncnc(Nc3ccc(F)c(Cl)c3)c2cc1OCCCN1CCOCC1 [Gefitinib]  DLD1 NRF2-WT  False
 9  Cc1ccc(NS(=O)(=O)c2cccc(C#N)c2)c2[nH]cc(C#N)c12 [E7820]  DLD1 NRF2-WT   True
10  CCc1c(C(=O)C(N)=O)c2c(OCC(=O)O)cccc2n1Cc1ccccc1 [Varespladib]  DLD1 NRF2-WT  False
11  COc1cc2nccc(Oc3ccc(NC(=O)NC4CC4)c(Cl)c3)c2cc1C(N)=O [Lenvatinib]  DLD1 NRF2-WT  False
12  O=C(/C=C/c1cccc(S(=O)(=O)Nc2ccccc2)c1)NO [Belinostat]  DLD1 NRF2-WT  False
13  O=C(Nc1ccc(OC(F)(F)Cl)cc1)c1cnc(N2CC[C@@H](O)C2)c(-c2cc[nH]n2)c1 [NVP-ABL001]  DLD1 NRF2-WT  False
14  Cc1cc2c(C(C)C)c(O)c(O)c(C=O)c2c(O)c1-c1c(C)cc2c(C(C)C)c(O)c(O)c(C=O)c2c1O [AT 101]  DLD1 NRF2-WT  False
15  Cc1cnc(Nc2ccc(OCCN3CCCC3)cc2)nc1Nc1cccc(S(=O)(=O)NC(C)(C)C)c1 [Fedratinib]  DLD1 NRF2-WT  False
16  CC(C)NC(=O)COc1cccc(-c2nc(Nc3ccc4[nH]ncc4c3)c3ccccc3n2)c1 [KD025]  DLD1 NRF2-WT  False
17  CCOCc1nc2c(N)nc3ccccc3c2n1CC(C)(C)O [Resiquimod]  DLD1 NRF2-WT  False
18  CN(C)C1CCN(C(=O)c2ccc(NC(=O)Nc3ccc(-c4nc(N5CCOCC5)nc(N5CCOCC5)n4)cc3)cc2)CC1 [Gedatolisib]  DLD1 NRF2-WT   True
